experiment: Selectivity index, ratio of IC50 for equine BChE to IC50 for bovine AChE
Ratio IC50 overview

structure-string | Ratio IC50
c1cc2cc(c1)C[n+]1ccc(cc1)NCc1ccc(cc1)CNc1cc[n+](cc1)C2 | 0.22
c1cc(-c2ccc(C[n+]3ccc(N4CCCCC4)cc3)cc2)ccc1C[n+]1ccc(N2CCCCC2)cc1 | 2.7
c1cc(C[n+]2ccc(C3CCCCC3)cc2)cc(-c2cccc(C[n+]3ccc(C4CCCCC4)cc3)c2)c1 | 8.2
CN(C)c1cc[n+](Cc2cc(C[n+]3ccc(N(C)C)cc3)cc(C[n+]3ccc(N(C)C)cc3)c2)cc1 | 3.6
CN(C)c1cc[n+](Cc2ccc(C[n+]3ccc(N(C)C)cc3)cc2)cc1 | 7.6

Ref: ChEMBL document CHEMBL1770085
